Test system: K. pneumoniae 848844
Assay: microbe, parasite or virus in culture
Type: cell-based, Klebsiella pneumoniae
Settings: Klebsiella pneumoniae; K. pneumoniae 848844 producing SHV-11 and KPC-2; read-out: MIC K. pneumoniae 848844
ASSAY_METRIC: MIC

CCN1CCN(C(=O)NC(C(=O)N[C@H]2Cc3cccc(C(=O)O)c3OB2O)c2ncc(O)cc2F)C(=O)C1=O (stereo partly shown): 32 to 64 µg/mL
CC(=O)NCCN1CCN(C(=O)NC(C(=O)N[C@H]2Cc3ccc(F)c(C(=O)O)c3OB2O)c2ccc(O)c(O)c2Cl)C(=O)C1=O (stereo partly shown): 2 to 4 µg/mL
CCN1CCN(C(=O)NC(C(=O)N[C@H]2Cc3ccc(F)c(C(=O)O)c3OB2O)c2ccc(O)c(O)c2F)C(=O)C1=O (stereo partly shown): 2 to 4 µg/mL
CCN1CCN(C(=O)NC(C(=O)N[C@H]2Cc3ccc(F)c(C(=O)O)c3OB2O)c2ccc(O)c(O)c2Cl)C(=O)C1=O (stereo partly shown): > 128 µg/mL
CCN1CCN(C(=O)NC(C(=O)N[C@H]2Cc3ccc(Cl)c(C(=O)O)c3OB2O)c2ccc(O)c(O)c2Cl)C(=O)C1=O (stereo partly shown): 2 to 4 µg/mL
CCN1CCN(C(=O)NC(C(=O)N[C@H]2Cc3cccc(C(=O)O)c3OB2O)c2ccc(S(N)(=O)=O)cc2F)C(=O)C1=O (stereo partly shown): > 128 µg/mL

Per the records, this compound ( CCN1CCN(C(=O)NC(C(=O)N[C@H]2Cc3cccc(C(=O)O)c3OB2O)c2csc(N)n2)C(=O)C1=O (stereo partly shown) ) has MIC equal to 32 to 64 µg/mL

====

Biological target: E. coli PBP2 (Escherichia coli (strain K12))
Assay: E. coli PBP2 Bocillin-FL fluorescence polarization competition binding assay
Description: To determine the ability of boronic acid-based test PBP inhibitors to bind Penicillin Binding Proteins (PBPs), Bocillin-FL (fluorescently-labeled penicillin V; ThermoFisher Scientific) was used in a fluorescence polarization (FP) competition binding assay to assess inhibitor binding to PBP2, PBP3 or PBP4 from Escherichia coli. […] Bocillin-FL was added and the FP immediately measured for 60 minutes (90 minutes for PBP2). […]
ASSAY_METRIC: EC50

CCN1CCN(C(=O)NC(C(=O)N[C@H]2Cc3cccc(C(=O)O)c3OB2O)c2cccc(N)n2)C(=O)C1=O (some centres unmarked): 30 to 500 µM

Now examine the next entry.
Per the records, this compound ( CCN1CCN(C(=O)NC(C(=O)N[C@H]2Cc3cccc(C(=O)O)c3OB2O)c2ccc(O)cn2)C(=O)C1=O (some centres unmarked) ) has EC50 equal to 30 to 500 µM

====

System: A. baumannii ATCC 19606
Assay: Broth microdilution MIC, A. baumannii ATCC 19606
Assay type: cell-based
Conditions: Acinetobacter baumannii, ATCC19606; A. baumannii ATCC 19606, broth microdilution; read-out: MIC A. baumannii ATCC 19606
MIC listing for selected compounds.

Here are 3 compounds together with their reported answers.
CCN1CCN(C(=O)N[C@@H](C(=O)N[C@H]2Cc3cccc(C(=O)O)c3OB2O)c2ncc(O)cc2F)C(=O)C1=O [Example 177]: > 128 µg/mL
CCCN1CCN(C(=O)NC(C(=O)N[C@H]2Cc3ccc(F)c(C(=O)O)c3OB2O)c2ccc(O)c(O)c2Cl)C(=O)C1=O (stereo partly shown) [Example 125]: < 0.25 µg/mL
CCN1CCN(C(=O)NC(C(=O)N[C@H]2Cc3ccc(F)c(C(=O)O)c3OB2O)c2ccc(O)c(O)c2Cl)C(=O)C1=O (stereo partly shown) [Example 124]: 0.5 to 1 µg/mL

Per the records, this compound ( CCN1CCN(C(=O)NC(C(=O)N[C@H]2Cc3ccc(Cl)c(C(=O)O)c3OB2O)c2ncc(O)cc2F)C(=O)C1=O (stereo partly shown) [Example 216] ) has MIC equal to > 128 µg/mL

Per the records, this compound ( CCN1CCN(C(=O)NC(C(=O)N[C@H]2Cc3cccc(C(=O)O)c3OB2O)c2ncc(C(N)=O)cc2F)C(=O)C1=O (stereo partly shown) [Example 246] ) has MIC equal to > 128 µg/mL

Per the records, this compound ( CCN1C[C@H](CCN)N(C(=O)NC(C(=O)N[C@H]2Cc3ccc(F)c(C(=O)O)c3OB2O)c2ccc(O)c(O)c2Cl)C(=O)C1=O (stereo partly shown) [Example 238] ) has MIC equal to 0.5 to 1 µg/mL

Per the records, this compound ( CCN1CCN(C(=O)N[C@H](C(=O)N[C@H]2Cc3ccc(F)c(C(=O)O)c3OB2O)c2ccc(O)c(O)c2Cl)C(=O)C1=O [Example 188] ) has MIC equal to 32 to 64 µg/mL

Per the records, this compound ( CCN1CCN(C(=O)N[C@@H](C(=O)N[C@H]2Cc3ccc(F)c(C(=O)O)c3OB2O)c2ccc(O)c(O)c2Cl)C(=O)C1=O [Example 189] ) has MIC equal to < 0.25 µg/mL

Per the records, this compound ( CCN1CCN(C(=O)N[C@@H](C(=O)N[C@H]2Cc3cccc(C(=O)O)c3OB2O)c2ccc(O)c(O)c2Cl)C(=O)C1=O [Example 190] ) has MIC equal to < 0.25 µg/mL

====

MIC listing for selected compounds.
Tested on: E. coli AG100A
Test: microbe, parasite or virus in culture
Assay type: cell-based
Conditions: Escherichia coli, read-out: MIC E. coli AG100A

Here are 4 compounds together with their reported answers.
CCN1CCN(C(=O)NC(C(=O)N[C@H]2Cc3cccc(C(=O)O)c3OB2O)c2ccc(O)cc2)C(=O)C1=O (some centres unmarked): 2 to 4 µg/mL
CCN1CCN(C(=O)NC(C(=O)N[C@H]2Cc3cccc(C(=O)O)c3OB2O)c2ccc(OCCCN)cc2F)C(=O)C1=O (some centres unmarked): 0.5 to 1 µg/mL
CCN1CCN(C(=O)NC(C(=O)N[C@H]2Cc3cccc(C(=O)O)c3OB2O)c2nsc(N)n2)C(=O)C1=O (some centres unmarked): 2 to 4 µg/mL
CCN1CCN(C(=O)NC(C(=O)N[C@H]2Cc3cccc(C(=O)O)c3OB2O)c2cc(O)c(O)c(Cl)c2)C(=O)C1=O (some centres unmarked): 8 to 16 µg/mL

Now examine the next entry.
Per the records, this compound ( CCN1CCN(C(=O)NC(C(=O)N[C@H]2Cc3cccc(C(=O)O)c3OB2O)c2ccc(N)nc2)C(=O)C1=O (some centres unmarked) ) has MIC equal to 2 to 4 µg/mL

====

Molecular target: E. coli PBP4 (Escherichia coli (strain K12))
Sequence (P24228 21-477): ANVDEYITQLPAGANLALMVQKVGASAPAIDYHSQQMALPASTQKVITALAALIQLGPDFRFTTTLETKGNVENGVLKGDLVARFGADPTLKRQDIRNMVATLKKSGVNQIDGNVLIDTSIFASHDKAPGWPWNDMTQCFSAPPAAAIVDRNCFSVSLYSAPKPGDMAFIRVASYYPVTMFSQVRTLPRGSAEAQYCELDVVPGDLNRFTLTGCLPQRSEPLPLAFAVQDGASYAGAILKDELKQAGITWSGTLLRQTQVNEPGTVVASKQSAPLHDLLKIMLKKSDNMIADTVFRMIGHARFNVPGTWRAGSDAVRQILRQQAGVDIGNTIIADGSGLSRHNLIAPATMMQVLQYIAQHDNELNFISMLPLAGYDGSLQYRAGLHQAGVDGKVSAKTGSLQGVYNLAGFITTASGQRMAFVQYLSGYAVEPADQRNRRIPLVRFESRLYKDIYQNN
Experiment: E. coli PBP4 Bocillin-FL fluorescence polarization competition binding assay
pEC50: −log10 of the molar value.
pEC50 listing for selected molecules.

Here are 2 molecules together with their reported answers.
CCN1CCN(C(=O)N[C@H](Cc2ccc(O)c(O)c2)C(=O)N[C@H]2Cc3cccc(C(=O)O)c3OB2O)C(=O)C1=O [Example 40]: 3.30 to 4.52
CCN1CCN(C(=O)NC(C(=O)N[C@H]2Cc3cccc(C(=O)O)c3OB2O)c2ccc(O)cn2)C(=O)C1=O (stereo partly drawn) [Example 89]: 3.30 to 4.52

Per the records, this molecule ( O=C(O)c1c(F)ccc2c1OB(O)[C@@H](NC(=O)C(NC(=O)N1CCN(CCF)C(=O)C1=O)c1ccc(O)c(O)c1Cl)C2 (stereo partly drawn) [Example 131] ) has pEC50 equal to 3.30 to 4.52

====

Tested on: E. coli AG100A
Assay: microbe, parasite or virus in culture
Type: cell-based
Settings: Escherichia coli, read-out: MIC E. coli AG100A
Excerpt: To determine the ability of test compounds to potentiate the inhibition of the growth of bacterial strains, classic cell based broth microdilution minimum inhibitory concentration (MIC) assays were employed. […] Briefly, cryo-preserved bacterial cultures of challenge strains are streaked for isolation on appropriate agar medium, in this case Mueller Hinton II agar. […] The MIC values are read visually as the lowest concentration well with no bacterial growth.
MIC listing for selected molecules.

Here are 5 molecules together with their reported answers.
CCN1CCN(C(=O)NC(C(=O)N[C@H]2Cc3cccc(C(=O)O)c3OB2O)c2ccc(O)c([N+](=O)[O-])c2)C(=O)C1=O (stereo partly drawn): 2 to 4 µg/mL
C[C@@H](O)[C@@H](NC(=O)N1CCN(CCF)C(=O)C1=O)C(=O)N[C@H]1Cc2ccc(F)c(C(=O)O)c2OB1O: 8 to 16 µg/mL
C[C@H]1CN(CCO)C(=O)C(=O)N1C(=O)NC(C(=O)N[C@H]1Cc2cccc(C(=O)O)c2OB1O)c1ccc(O)c(O)c1Cl (stereo partly drawn): 0.5 to 1 µg/mL
NCCCN1CCN(C(=O)NC(C(=O)N[C@H]2Cc3cccc(C(=O)O)c3OB2O)c2ccc(O)c(O)c2Cl)C(=O)C1=O (stereo partly drawn): 0.5 to 1 µg/mL
CCN1CCN(C(=O)NC(C(=O)N[C@H]2Cc3ccc(F)c(C(=O)O)c3OB2O)c2ncc(O)cc2F)C(=O)C1=O (stereo partly drawn): 2 to 4 µg/mL

Now examine the next entry.
MIC value, target or system E. coli AG100A, for CCCN1CCN(C(=O)NC(C(=O)N[C@H]2Cc3cccc(C(=O)O)c3OB2O)c2ccc(O)cn2)C(=O)C1=O (stereo partly drawn) : 8 to 16 µg/mL
